Assay system Acetylcholinesterase (Homo sapiens, UniProt P22303); read-out recorded as IC50.
Please don't drop the unit; write it after the number.

* COc1cc2c(cc1OC)-c1cc3ccc(OC)c(OC)c3c[n+]1CC2.O.[Cl-] [PALMATINE CHLORIDE HYDRATE] | 1690 nM

Query for Acetylcholinesterase (Homo sapiens, UniProt P22303): what IC50 does the record show for COc1ccc2c(c[n+](C)c3c4cc5c(cc4ccc23)OCO5)c1OC [CHELERYTHRINE CHLORIDE] ?
1540 nM

====

- TEST SYSTEM: UniProtKB O42275
- PARTICULARS: at 2 mg/mL
- Description: Inhibition of electric eel AChE at 2 mg/ml by Ellman's method
MEASURE NAME: inhibition
Please don't drop the unit; write it after the number.

* CC(C)(O)[C@@H]1[C@H]2OC(=O)[C@@H]1[C@]1(O)C[C@H]3O[C@]34C(=O)O[C@H]2[C@]14C | 22.6%
* COc1c2occc2cc2ccc(=O)oc12 | 4.4%
* COc1cc(-c2oc3cc(O)cc(O)c3c(=O)c2O)ccc1O | 5.76%

Query for UniProtKB O42275: what inhibition does the record show for O=c1c(O)c(-c2cc(O)c(O)c(O)c2)oc2cc(O)ccc12 ?
15.7%

Another molecule: COc1cc([C@@H]2c3cc4c(cc3[C@H](O)[C@H]3COC(=O)[C@@H]23)OCO4)cc(OC)c1OC
27.1%

Another molecule: COc1ccc2c3c4n(c2c1)[C@H](C=C(C)C)OOC(C)(C)C[C@@H]4N1C(=O)[C@@H]2CCCN2C(=O)[C@]1(O)[C@H]3O
1.5%

Another molecule: CC1=C2C[C@H]3[C@@H](CC=C4C[C@@H](O)CC[C@@]43C)[C@@H]2CC[C@]12O[C@@H]1C[C@H](C)CN[C@H]1[C@H]2C
-3.81%

Another molecule: C/C=C/C/C=C/CCC(=O)[C@H]1O[C@H]1C(N)=O
-4.02%

Another molecule: C=C[C@H]1CN2CC[C@H]1C[C@H]2[C@H](O)c1ccnc2ccc(OC)cc12
15.8%

====

# inhibition values compiled below
- TEST SYSTEM: Acetylcholinesterase (Electrophorus electricus)
- PARTICULARS: at 2 mg/mL
Response body: numeric value in %, unit text excluded.

What value of inhibition has been reported for the following compound? CO[C@H]1[C@@H](O)[C@@H](C)O[C@H](O[C@H]2[C@H](Oc3cccc4c(O)c5c(=O)oc6ccc(C)c7c(=O)oc(c34)c5c67)O[C@H](C)[C@H](O)[C@@H]2O)[C@@H]1O
17.5

Another compound: COc1cc(O)c2c(=O)c(O)c(-c3ccc(O)c(O)c3)oc2c1
23.7

Another compound: C[n+]1cc2c3c(ccc2c2ccc4cc5c(cc4c21)OCO5)OCO3
27

Another compound: CC1=C2C(=O)[C@H]3[C@@H](CC=C4C[C@@H](O)CC[C@@]43C)[C@@H]2CC[C@]12O[C@@H]1C[C@H](C)CN[C@H]1[C@H]2C
-9.1

Another compound: COc1cc(C(=O)O[C@H]2C/C(C)=C/CC/C(C)=C/[C@H](O)[C@@H]2C(C)C)ccc1O
23.6

====

- TEST SYSTEM: Acetylcholinesterase (Electrophorus electricus) (UniProt O42275)
- Sequence (O42275 24-633 limits assumed): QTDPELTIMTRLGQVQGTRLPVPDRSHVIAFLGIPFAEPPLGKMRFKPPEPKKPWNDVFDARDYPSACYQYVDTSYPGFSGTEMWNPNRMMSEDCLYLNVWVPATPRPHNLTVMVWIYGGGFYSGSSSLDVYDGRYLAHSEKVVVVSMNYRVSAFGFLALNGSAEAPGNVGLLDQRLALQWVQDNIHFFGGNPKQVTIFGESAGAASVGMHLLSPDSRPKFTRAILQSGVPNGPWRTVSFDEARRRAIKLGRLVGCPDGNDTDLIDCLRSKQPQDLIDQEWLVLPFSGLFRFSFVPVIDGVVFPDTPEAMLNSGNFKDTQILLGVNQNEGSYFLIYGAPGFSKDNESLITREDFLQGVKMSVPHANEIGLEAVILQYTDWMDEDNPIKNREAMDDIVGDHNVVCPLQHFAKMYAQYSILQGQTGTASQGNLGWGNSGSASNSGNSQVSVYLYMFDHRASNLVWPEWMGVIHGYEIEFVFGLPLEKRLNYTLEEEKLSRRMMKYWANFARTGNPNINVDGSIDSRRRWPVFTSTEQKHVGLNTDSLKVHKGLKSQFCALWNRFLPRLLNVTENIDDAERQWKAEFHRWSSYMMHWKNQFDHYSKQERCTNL
- PARTICULARS: at 2 mg/mL
# inhibition values compiled below
Response body: numeric value in %, unit text excluded.

Observe how each entry below is paired with its result.
• O=C(O)C1=C[C@@H](O)[C@@H](O)[C@H](O)C1 = -8.33
• O=C1C[C@@H](c2ccc(O)cc2)Oc2cc(O)cc(O)c21 = 7.24
• CCN1C[C@]2(C)CC[C@H](OC)[C@@]34C1[C@]1(OCO[C@@]15C[C@H](OC)[C@H]1C[C@]3(O)[C@@H]5[C@H]1OC)[C@@H](OC(C)=O)[C@H]24 = 29.5

What value of inhibition has been reported for the following compound? COc1ccc(-c2cc(=O)c3ccc(O)cc3o2)cc1
30.6

Another compound: CC1(C)C2CCC1(C(=O)O)C(=O)C2 (stereo not drawn)
16.7

====

# inhibition values compiled below
- TEST SYSTEM: Cholinesterase (Equus caballus)
- PARTICULARS: at 2 mg/mL
- Description: Inhibition of horse BChE at 2 mg/ml by Ellman's method
Response body: numeric value in %, unit text excluded.

Query for Cholinesterase (Equus caballus): what inhibition does the record show for C/C=C(/C)C(=O)O[C@H]1C[C@@]2(C)O[C@H]2[C@@H](O)[C@@]2(C)CC[C@@](O)(C(C)C)[C@H]12 ?
-1.91

====

- TEST SYSTEM: Cholinesterase (Equus caballus) (UniProt P81908)
- Sequence (P81908 whole entry): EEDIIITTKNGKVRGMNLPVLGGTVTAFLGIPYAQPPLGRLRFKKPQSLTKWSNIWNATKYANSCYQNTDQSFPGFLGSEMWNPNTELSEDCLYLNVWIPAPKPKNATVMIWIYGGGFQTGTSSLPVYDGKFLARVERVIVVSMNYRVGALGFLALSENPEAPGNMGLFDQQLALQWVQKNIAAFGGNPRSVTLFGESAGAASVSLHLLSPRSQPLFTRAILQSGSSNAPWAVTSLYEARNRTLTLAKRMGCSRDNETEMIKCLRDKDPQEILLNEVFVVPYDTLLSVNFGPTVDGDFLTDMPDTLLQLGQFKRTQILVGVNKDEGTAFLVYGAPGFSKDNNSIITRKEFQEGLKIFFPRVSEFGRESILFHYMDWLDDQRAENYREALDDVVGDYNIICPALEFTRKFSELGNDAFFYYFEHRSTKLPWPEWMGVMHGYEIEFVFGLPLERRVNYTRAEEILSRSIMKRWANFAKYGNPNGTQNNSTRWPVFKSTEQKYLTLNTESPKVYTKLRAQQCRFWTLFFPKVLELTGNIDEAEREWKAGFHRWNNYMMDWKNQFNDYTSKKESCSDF
- PARTICULARS: at 2 mg/mL
# inhibition values compiled below
Response body: numeric value in %, unit text excluded.

Observe how each entry below is paired with its result.
• CC1(C)CCC2=C(O1)c1ccccc1C(=O)C2=O = 11.2
• CC1(C)CC[C@]2(C(=O)O)CC[C@]3(C)C(=CC[C@@H]4[C@@]5(C)CC[C@H](O)C(C)(C)[C@@H]5CC[C@]43C)[C@@H]2C1 = 0.92
• Cl.Cl.c1ccc2c3c([nH]c2c1)[C@H]1[C@H]2CC[C@H]([C@@H]4CCCN[C@@H]42)N1CC3 = 48.7
• OC[C@@H]1[C@@H](O)[C@H](O)[C@H]2[C@@H](O)CCN21 = 1.12
• CCCCC[C@H](O)/C=C/C1=C(CCCCCCC(=O)O)C(=O)CC1 = -1.44

What value of inhibition has been reported for the following compound? CN1[C@H]2CC(=O)C[C@@H]1C(O)C2 (stereo not given in full)
-3.92

Another compound: COc1cc(C2Oc3cc([C@H]4Oc5cc(O)cc(O)c5C(=O)[C@@H]4O)ccc3OC2CO)ccc1O (stereo not given in full)
-7.94

Another compound: COc1ccc(CC2NCCc3cc(OC)c(OC)cc32)cc1OC (stereo not given)
7.36

Another compound: COc1ccc(C[C@H]2c3cc(OC)c(OC)cc3CC[N+]2(C)C)cc1OC
2.85

Another compound: COC(=O)/C(=C1/OC(=O)C(c2ccccc2)=C1O)c1ccccc1
0.35

====

- TEST SYSTEM: Cholinesterase (Equus caballus)
- PARTICULARS: at 2 mg/mL
MEASURE NAME: inhibition (%)
Response body: numeric value in %, unit text excluded.

Observe how each entry below is paired with its result.
• O=C1C=C2C(=CCOC2O)O1 (stereo not given) = -1.78
• COc1cccc2oc(-c3ccccc3)cc(=O)c12 = 18.3
• C[C@@H]1O[C@@H](OC[C@H]2O[C@@H](Oc3cc(O)c4c(c3)O[C@H](c3ccc(O)cc3)CC4=O)[C@H](O)[C@@H](O)[C@@H]2O)[C@H](O)[C@H](O)[C@H]1O = -0.5
• COc1cc2ccc(=O)oc2cc1O = 0.6
• COc1cc2c(c(OC)c1OC)-c1c(cc(OC)c(OC)c1OC)C[C@H](C)[C@H](C)C2 = -4.82

What value of inhibition has been reported for the following compound? Cc1cc(=O)oc2cc(O)ccc12
0.88

Another compound: CN1CCc2cc3c(cc2C(=O)Cc2ccc4c(c2C1)OCO4)OCO3
7.56

Another compound: C[C@]1(C(=O)O)CCC[C@]2(C)c3cc(O)ccc3CC[C@@H]12
-2.99

Another compound: O=C1C[C@@H](c2ccccc2)Oc2cc(O)cc(O)c21
1.45

Another compound: C[C@@H]1C[C@@H]([C@H](O)CC2CC(=O)NC(=O)C2)C(=O)[C@@H](C)C1
-2.08

====

- TEST SYSTEM: Cholinesterase (Equus caballus) (UniProt P81908)
- PARTICULARS: at 2 mg/mL
MEASURE NAME: inhibition (%)
Response body: numeric value in %, unit text excluded.

Observe how each entry below is paired with its result.
• O=c1oc2cc(O)ccc2c2oc3cc(O)ccc3c12 = 9.06
• C=C1C(=O)O[C@@H]2C3O[C@]3(C)CC/C=C(\C)CC[C@@H]12 (stereo partly drawn) = 14

What value of inhibition has been reported for the following compound? CC[C@]12CCCN3CCc4c(n(c5ccccc45)C(=O)C1)[C@@H]32
0.04

Another compound: O=c1cc(-c2ccc(O)cc2)oc2cc(O)cc(O)c12
4.5

Another compound: CO[C@H]1/C=C/O[C@@]2(C)Oc3c(C)c(O)c4c(O)c(c(/C=N/N5CCN(C)CC5)c(O)c4c3C2=O)NC(=O)/C(C)=C\C=C\[C@H](C)[C@H](O)[C@@H](C)[C@@H](O)[C@@H](C)[C@H](OC(C)=O)[C@@H]1C
1.88

Another compound: CC[C@]1(O)C[C@H]2CN(CCc3c([nH]c4ccccc34)[C@@](C(=O)OC)(c3cc4c(cc3OC)N(C=O)[C@H]3[C@@](O)(C(=O)OC)[C@H](OC(C)=O)[C@]5(CC)C=CCN6CC[C@]43[C@@H]65)C2)C1
2.81

Another compound: CCCCCCCCCCCCCC[C@@H](O)[C@@H](O)[C@H](CO)NC(C)=O
3.97

Another compound: COc1cc2c(c(OC)c1OC)-c1ccc(OC)c(=O)cc1[C@@H](NC(C)=O)CC2
0.1
